Molecular target: recombinant human GAA (acid alpha-glucosidase) (Homo sapiens, UniProt P10253)
Experiment: Acid alpha-glucosidase (GAA) assay (4-methylumbelliferyl-alpha-D-pyranoside substrate, fluorescence)
experimental-endpoint: pIC50
In plain terms, pIC50 is the concentration in mol/L turned into minus its base-10 logarithm.

Worked cases, answers included:
smiles-code: OC[C@@H]1[C@@H](O)[C@H](O)[C@@H](O)CN1CCCCCCNc1ccc(-c2ncccn2)cc1Cl
experimental-endpoint: pIC50
numeric-readout: 7.17
//
smiles-code: CC(=O)Nc1cc(NCCCCCCN2C[C@H](O)[C@@H](O)[C@H](O)[C@H]2CO)cc(-c2ncccn2)c1
experimental-endpoint: pIC50
numeric-readout: 7.10

Then there is this compound:
[Q] Observed pIC50 on recombinant human GAA (acid alpha-glucosidase) (Homo sapiens, UniProt P10253) for [N-]=[N+]=Nc1ccc(NCc2ccc(CN3C[C@H](O)[C@@H](O)[C@H](O)[C@H]3CO)cc2)c([N+](=O)[O-])c1 , please.
[A] 7.09

FYI, the data here is from patent US20250197372A1.
